# System: SK-MEL-2 melanoma
# assay.summary: NCI tumour cell line growth inhibition, 48 h; in the data active means GI50 below about 0.43 µM; inactive means the rest
Classes used: active, inactive

compound.string: O=C(NC(=O)c1ccccc1[N+](=O)[O-])Nc1ccc(Oc2ncc(Br)cn2)c(Cl)c1
category.label: active
--
compound.string: COc1cc(/C=N\NC(=O)CN2CCN(c3cc4c(cc3F)c(=O)c(C(=O)N/N=C/c3cc(OC)c(OC)c(OC)c3)cn4C3CC3)CC2)cc(OC)c1OC
category.label: active
--
compound.string: O=C(Nc1ccc(-n2ccc3c(NC(=O)c4ccccc4)nccc32)cc1)c1ccc(Cl)c(C(F)(F)F)c1
category.label: inactive
--
compound.string: CCC(=O)[C@H](C)[C@@H](OC(=O)[C@H](C)CC)[C@H](C)[C@H]1OC(CC)=C(C)C(=O)[C@@H]1C
category.label: inactive

----------
# System: M14 melanoma
# assay.summary: NCI tumour cell line growth inhibition, 48 h

compound: NC(N)=NS(=O)(=O)c1ccc(Nc2c3ccccc3nc3c(C(=O)NCCO)cccc23)cc1
GI50: 26300 nM
//
compound: CC1CCc2nc[nH]c(=O)c21 (configuration not stated)
GI50: > 100000 nM
//
compound: O=C(Nc1ccc(F)cc1)Nc1ccc(Cl)c([N+](=O)[O-])c1
GI50: 3140 nM
//
compound: COc1ccc2c(c1)sc1nc(-c3ccccc3)c(-c3cccc4ccccc34)n12
GI50: 475 nM
//
compound: COc1cc(/C=N\NC(=O)CN2CCN(c3cc4c(cc3F)c(=O)c(C(=O)N/N=C/c3cc(OC)c(OC)c(OC)c3)cn4C3CC3)CC2)cc(OC)c1OC
GI50: 429 nM
//
compound: Nc1nc(-n2c(-c3ccccc3)nc3c(Br)cc(Br)cc3c2=O)nnc1-c1cccc(Cl)c1Cl
GI50: 2640 nM
//
compound: CCN1CCN(Cc2ccc(NC(=O)c3cccc(C#Cc4cccc5[nH]nc(N)c45)c3)cc2C(F)(F)F)CC1
GI50: 62.2 nM

----------
# System: HOP-62 NSCLC
# assay.summary: NCI tumour cell line growth inhibition, 48 h

compound: CCn1c(C)nn2c(=O)c3ccccc3nc2c1=O
TGI: > 100 µM
--
compound: O=c1ccc(-c2ccccc2)n[nH]1
TGI: > 100 µM
--
compound: C[N+](C)(C)CC(=O)N/N=C(/CC(=O)CC(C1=C(O)c2ccccc2OC1)c1ccccc1)C(=O)Nc1cccc(Cl)c1 (stereo unspecified)
TGI: > 100 µM
--
compound: Cc1ccc(NC(=O)Nc2ccc(-c3cccnc3)cc2N2CCC(CO)CC2)cc1
TGI: > 100 µM
--
compound: ClCCN1CCC2(CC1)SSC1(CCN(CCCl)CC1)S2
TGI: > 100 µM
--
compound: CCOC(=O)c1cn2c(n1)sc1cccc(C)c12
TGI: > 100 µM
--
compound: COc1ccc(-c2c(C#N)c(-c3ccc(C)cc3)n(NS(=O)(=O)c3ccc(C)cc3)c(=O)c2C#N)cc1
TGI: > 100 µM
--
compound: COC(=O)C1(C(C)C)CCc2c(OC)ccc(OC)c2C1=O (stereo unspecified)
TGI: > 100 µM
--
compound: Cc1ccc([N+](=O)[O-])cc1NC1=NCCO1
TGI: > 100 µM
--
compound: CCCCCCc1cc2cc(-c3csc(CC#N)n3)c(=O)oc2cc1O
TGI: > 100 µM
--
compound: COc1ccccc1N1C(=O)C2c3[nH]c4ccccc4c3C3CCC(C(C)(C)C)CC3C2C1=O (stereo unspecified)
TGI: > 100 µM
--
compound: Cc1ccc(-c2n[nH]c(=O)n2N2C(=O)c3ccccc3C2=O)cc1
TGI: > 100 µM
--
compound: NC(=O)NCCCC(NC(=O)OCCCCn1ccc(=O)[nH]c1=O)C(=O)O (stereo unspecified)
TGI: > 100 µM
--
compound: CCCCCCCCCCCCCCNC(=O)CCC(NC(=O)c1ccc(N(C)Cc2cnc3nc(N)nc(N)c3n2)cc1)C(=O)NCCCCCCCCCCCCCC (stereo unspecified)
TGI: 21.2 µM
--
compound: N#CCCC1C(C#N)C2(Cl)CC1(Cl)C(Cl)=C2Cl (stereo unspecified)
TGI: > 10 µM
--
compound: COc1cnc2c(c1)C(=O)c1c-2n(CCCN2CCOCC2)c(=O)c2cc(F)ccc12
TGI: 0.991 µM
--
compound: COc1cc2c(c3oc4c(O)cccc4c(=O)c13)CC(C(C)(O)CO)O2 (stereo unspecified)
TGI: > 100 µM
--
compound: CCOC(=O)C(SCCO)C(C(=O)OCC)n1cnc2c(=O)[nH]c(NC(C)=O)nc21 (stereo unspecified)
TGI: > 100 µM
--
compound: COC(=O)C([C@H](NC1(c2ccccc2)c2ccccc2-c2ccccc21)C(=O)OC)N(NC(=O)OCc1ccccc1)C(=O)OCc1ccccc1 (mixture of isomers)
TGI: > 100 µM
--
compound: CC(=O)OC1OC([C@@H]2c3cccc(O)c3C(=O)c3c(O)cc(C)cc32)C(O)C(O)C1O (stereo partly specified)
TGI: 0.995 µM
--
compound: O=C(Nc1ccc(F)cc1)Nc1ccc(Cl)c([N+](=O)[O-])c1
TGI: 15.9 µM
--
compound: O=c1[nH]c(Nc2cccc(CC(F)(F)F)c2)nc2nc[nH]c12
TGI: > 100 µM
--
compound: COc1cc2nc3n(c(=O)c2cc1OC)-c1ccc([N+](=O)[O-])cc1C3=O
TGI: > 100 µM
--
compound: O=C1/C(=C/c2ccccc2)N=C2Sc3c(nc[nH]c3=O)N12
TGI: > 100 µM
--
compound: Nn1c(-c2ccccc2)nn(C(=O)c2ccccc2)c1=O
TGI: > 100 µM
--
compound: N#Cc1c(N2CCCC2)ncn(-c2ccccc2)c1=O
TGI: > 100 µM

----------
# Tested on: COLO 205 colon
# assay.summary: NCI tumour cell line growth inhibition, 48 h
parameter: TGI

compound: COc1ccc(C2CC(c3c(O)ccc4ccccc34)=NN2C(C)=O)cc1OC (stereo unspecified)
result: 42.8 µM
//
compound: NC(=O)NO.O.O.O.O.O.O.O.O.O.O.O.[Ge].[Ge].[Ge].[Ge].[Ge].[O]=[Ge].[O]=[Ge].[O]=[Ge].[O]=[Ge].[O]=[Ge][OH]
result: > 100 µM
//
compound: C=C(C)C(OC)C(O)CC1(C)CC(O)CC(C)(C2CCC3OC(C4(C)CCC(Br)C(C)(C)O4)CCC3(C)O2)O1 (stereo unspecified)
result: 45.5 µM
//
compound: COc1ccc2c(c1)/C(=C/CCN(C)C)c1ccccc1S2
result: 38 µM
//
compound: NC1=NCCC1(c1ccccc1)c1ccccn1 (stereo unspecified)
result: > 100 µM
//
compound: Clc1ccccc1C(SCc1ccccc1)SCc1ccccc1
result: > 100 µM
//
compound: C=CCOc1ccc2c(C)cc(=O)oc2c1C
result: > 100 µM
//
compound: CN(C)N=Nc1ccc(C(N)=O)cc1
result: > 100 µM
//
compound: O=C(Nc1ccc(F)cc1)Nc1ccc(Cl)c([N+](=O)[O-])c1
result: 6.31 µM
//
compound: CCC[CH2][Sn]([CH2]CCC)([S]c1cccc2cccnc12)[S]c1cccc2cccnc12
result: 0.224 µM
//
compound: Cc1ccccc1C(=O)N1CCc2c([nH]c3ccccc23)C1
result: 31.9 µM

----------
Below, each of the molecules is paired with its reported TGI value.
# Tested on: MDA-MB-231 breast
# assay.summary: NCI tumour cell line growth inhibition, 48 h
parameter: TGI

molecule: Cc1ccc([N+](=O)[O-])cc1NC1=NCCO1
result: > 100 µM

molecule: C[N+](C)(C)CC(=O)N/N=C(/CC(=O)CC(C1=C(O)c2ccccc2OC1)c1ccccc1)C(=O)Nc1cccc(Cl)c1 (centres undefined)
result: > 100 µM

molecule: C=CC1(C)CCC2C(=CCC3C2(C)CC(O)C(O)C3(C)COC2OC(C(=O)O)C(O)C(O)C2O)C1 (centres undefined) (tested in a mixture with another compound)
result: > 100 µM

molecule: CN(C)C(=O)O/N=C1/C(c2c(O)[nH]c3ccccc23)=Nc2ccccc21
result: 65 µM

molecule: O=C(Nc1ccccc1)c1c(O)[nH]c(=S)[nH]c1=O
result: 94 µM

molecule: N#Cc1c(-c2ccccc2)/c(=C\Nc2cccc(C(F)(F)F)c2)c(=O)n2c1nc1ccccc12
result: > 100 µM

molecule: Cc1ccc(Cl)c2[nH]c(-c3ccccc3)cc(=O)c12
result: > 100 µM

molecule: O=C(Nc1ccc(F)cc1)Nc1ccc(Cl)c([N+](=O)[O-])c1
result: 6.46 µM

molecule: C1CN(c2nc3c(nnc4nc(N5CCOCC5)sc43)s2)CCO1
result: > 100 µM

----------
Below, each of the compounds is paired with its reported TGI value.
# Tested on: U251 CNS
# assay.summary: NCI tumour cell line growth inhibition, 48 h
*1 amine or outer side, *2 acyl side, *3 side chain or, on linkers, in order; H or OH if unused. Where a SMILES comes first, the peptide text is derived from it. Bridges are numbered along the chain shown (N, C = ends). [ ]: non-standard residue; d: D form. The star is where a group is joined. Phe(3,5-F2) = N[C@@H](Cc1cc(F)cc(F)c1)C(=O)O; Pro(4R-Me) = C[C@H]1CN[C@H](C(=O)O)C1; aThr = C[C@H](O)[C@H](N)C(=O)O; Pip = O=C(O)[C@@H]1CCCCN1; X10 = Fc1cc(C2CC2)ccc1N*; CO = O=C([*:1])[*:2]

compound: C[C@@H]1C[C@H]2C(=O)O[C@@H](C)[C@H](NC(=O)[C@H](Cc3cc(F)cc(F)c3)NC(=O)Nc3ccc(C4CC4)cc3F)C(=O)N3CCC[C@H]3C(=O)N3CCCC[C@H]3C(=O)N[C@@H](C)C(=O)N2C1 ({X10-CO}-[Phe(3,5-F2)][aThr]P[Pip]A[Pro(4R-Me)]; ester 2-C)
TGI: > 46 µM
--
compound: CC(=O)[CH-]C(=O)c1ccccc1.CC(=O)[CH-]C(=O)c1ccccc1.CN(C)c1ccc([O-])cc1.CN(C)c1ccc([O-])cc1.Cl.[Ti+4]
TGI: > 31.6 µM
--
compound: Fc1ccc(NC(=S)SCc2ccc3c(c2)OCO3)cc1F
TGI: 43.1 µM
--
compound: N#CC1(C#N)N[C@@H](c2ccsc2)[C@H]2C(=O)N(c3ccccc3)C(=O)[C@H]21
TGI: > 100 µM
--
compound: O=c1c2cc([N+](=O)[O-])cnc2sn1-c1ccc([N+](=O)[O-])cc1
TGI: > 100 µM
--
compound: OCC1=CC(NC2CC(CO)C(O)C(O)C2O)C(O)C(O)C1O (stereo not drawn)
TGI: > 100 µM
--
compound: O=c1ccc(-c2ccccc2)n[nH]1
TGI: > 100 µM
--
compound: NC1=NCCC1(c1ccccc1)c1ccccn1 (stereo not drawn)
TGI: > 100 µM
